# TARGET_DESC: Mas-related G-protein coupled receptor member X1 (Homo sapiens)
# EXPERIMENT_NOTES: MrgX1 activation via calcium signaling – HEK293 cells, Fluo-4 calcium flux, primary screen (AID 588627)
# MEASUREMENT_CONTEXT: Fluo-4 calcium fluorescence, agonist mode, at 10 µM
In all, about 310,000 compounds went through this assay and about 1,400 (0.45%) were called active.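 The calls were made as follows: active = calcium response B-score plate-corrected fluorescence ratio at least 3 library SD, with starting fluorescence B-score inside 5 SD; inactive = the rest.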 This is one part of a sample in which actives are shown more often than they occur.
Outcome codes: active, inactive

[[record]]
compound = "CCOC(=O)c1[nH]c2ccc(C)cc2c1N=C(C)N(C)C"
target_desc = "Mas-related G-protein coupled receptor member X1 (Homo sapiens)"
cat = "active"

[[record]]
compound = "CCN(CC(=O)Nc1ccc2c(c1)OCCO2)Cc1cc(=O)oc2cc(C)c(C)cc12"
target_desc = "Mas-related G-protein coupled receptor member X1 (Homo sapiens)"
cat = "inactive"

[[record]]
compound = "O=C(CSC1=NS(=O)(=O)c2cc(F)ccc2N1)Nc1ccccc1F"
target_desc = "Mas-related G-protein coupled receptor member X1 (Homo sapiens)"
cat = "inactive"

[[record]]
compound = "CCOc1c(Nc2cccc(Cl)c2)c(=O)c1=O"
target_desc = "Mas-related G-protein coupled receptor member X1 (Homo sapiens)"
cat = "inactive"

[[record]]
compound = "CCCc1cc(=S)n2c([nH]c3ccccc32)c1C#N"
target_desc = "Mas-related G-protein coupled receptor member X1 (Homo sapiens)"
cat = "active"

[[record]]
compound = "CCCc1ccc(OCC(=O)NNC(=S)NC(=O)c2ccco2)cc1"
target_desc = "Mas-related G-protein coupled receptor member X1 (Homo sapiens)"
cat = "inactive"

[[record]]
compound = "O=C(Cn1ccc2cc(S(=O)(=O)N3CCCC3)ccc21)NCc1ccccc1"
target_desc = "Mas-related G-protein coupled receptor member X1 (Homo sapiens)"
cat = "inactive"

[[record]]
compound = "CCCCN1C(N)=NC[C@@H]1Cc1ccccc1"
target_desc = "Mas-related G-protein coupled receptor member X1 (Homo sapiens)"
cat = "inactive"

[[record]]
compound = "C=CCC1=C/C(=C\\c2c(N)n3nc(CC(=O)N4CCOCC4)sc3nc2=O)C=C(OC)C1=O"
target_desc = "Mas-related G-protein coupled receptor member X1 (Homo sapiens)"
cat = "inactive"

[[record]]
compound = "CCCc1nc2c(c(=O)c3ccccc3n2C)c(=O)n1-c1cc(C)cc(C)c1"
target_desc = "Mas-related G-protein coupled receptor member X1 (Homo sapiens)"
cat = "inactive"

[[record]]
compound = "CCCc1nc2c(c(=O)c3ccccc3n2C)c(=O)n1C1CCCCCC1"
target_desc = "Mas-related G-protein coupled receptor member X1 (Homo sapiens)"
cat = "active"

[[record]]
compound = "CN(C)Cc1c(C#N)c2ccccc2n1C"
target_desc = "Mas-related G-protein coupled receptor member X1 (Homo sapiens)"
cat = "inactive"

[[record]]
compound = "COC(=O)N/N=C/c1cn(CCCOc2ccc(C)cc2)c2ccccc12"
target_desc = "Mas-related G-protein coupled receptor member X1 (Homo sapiens)"
cat = "inactive"

[[record]]
compound = "COC1=C/C(=C/c2c(N)n3nc(CC(=O)N4CCOCC4)sc3nc2=O)C=CC1=O"
target_desc = "Mas-related G-protein coupled receptor member X1 (Homo sapiens)"
cat = "active"

[[record]]
compound = "CC(Oc1ccc2ccccc2c1)C(=O)NNC(=S)NC(=O)c1ccco1 (stereo not drawn)"
target_desc = "Mas-related G-protein coupled receptor member X1 (Homo sapiens)"
cat = "active"

[[record]]
compound = "CCOC(=O)CCc1c(C)c(C#N)c2[nH]c3ccccc3n2c1=O"
target_desc = "Mas-related G-protein coupled receptor member X1 (Homo sapiens)"
cat = "inactive"

[[record]]
compound = "Cc1cc(NC(=O)CSc2nnnn2-c2ccc(F)cc2)no1"
target_desc = "Mas-related G-protein coupled receptor member X1 (Homo sapiens)"
cat = "inactive"

[[record]]
compound = "COc1ccc(CNc2ccc3c(c2)CCC3)cc1OC"
target_desc = "Mas-related G-protein coupled receptor member X1 (Homo sapiens)"
cat = "inactive"

[[record]]
compound = "CCOC(=O)c1cc2cc(C)ccc2[nH]1"
target_desc = "Mas-related G-protein coupled receptor member X1 (Homo sapiens)"
cat = "inactive"

[[record]]
compound = "CCOC(=O)c1[nH]c2ccccc2c1N=C(C)N(CC)CC"
target_desc = "Mas-related G-protein coupled receptor member X1 (Homo sapiens)"
cat = "inactive"

[[record]]
compound = "COc1ccc(-c2ccnc(SCC(=O)N3CCOCC3)n2)cc1"
target_desc = "Mas-related G-protein coupled receptor member X1 (Homo sapiens)"
cat = "inactive"

[[record]]
compound = "CCN(CC)c1ccc(C(=O)NNC(=O)CCc2nc3ccccc3c(=O)[nH]2)cc1"
target_desc = "Mas-related G-protein coupled receptor member X1 (Homo sapiens)"
cat = "inactive"

[[record]]
compound = "Cc1ccc(-n2cc(CN(C)Cc3nccn3C)c(-c3cccc(C)c3)n2)cc1"
target_desc = "Mas-related G-protein coupled receptor member X1 (Homo sapiens)"
cat = "inactive"

